# ASSAY NOTES: protein stability index of a GFP-peptide fusion (yeast GPS) (PSI 1-4); higher = more stable; sorted into four equal gates, so the index is relative within each strain
# CONDITION LABEL: ubr1∆
Note to self: values exactly at 3 are y. So protein stability index at or above 3 is y, below is n.

>>> label("LLKLIEPYVAYGYPSYS [RPL7A]")
"n"
>>> label("LSTSVGWKYEDVVAKLE [RPL16A]")
"y"
>>> label("KAFKNNSSKYYINEKES [SMC4]")
"n"
>>> label("VGVIIFILTIATAFLGY [COB]")
"n"
>>> label("LLVDIQKYNQIQKQIET [SMC2]")
"n"

Could you verify whether the entry SKCLNLISDSNINNSSV [SWI3] shows protein stability index of no less than 3?
n

Could you verify whether the entry CHLYSQRMHAIHEIDER [NNF1] shows protein stability index of no less than 3?
n

The measured values listed here are drawn from the supplement of paper PMC9732359.
